assay: qHTS profiling of the MIPE4 collection as inhibitors of Plasmodium falciparum (HB3) proliferation (AID 743347);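 also: plate controls were DMSO vehicle wells for no effect and artemisinin wells for full effect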; settings: P. falciparum HB3 in erythrocytes, SYBR Green DNA, 72 h; at 28.5 µM (top of the series) unless noted
Friendly reminder: growth, % of control below 10% is 1.0, at or above is 0.0.

q: Does this molecule meet the criterion growth, % of control < 10%? Cc1ccccc1-n1c(Cn2nc(-c3cccc(O)c3)c3c(N)ncnc32)nc2cccc(C)c2c1=O
a: 1.0

q: Does this molecule meet the criterion growth, % of control < 10%? Oc1cc(O)cc(C=Cc2ccc(O)c(O)c2)c1
a: 0.0

q: Does this molecule meet the criterion growth, % of control < 10%? CC(C)c1c(C(=O)Nc2ccccc2)c(-c2ccccc2)c(-c2ccc(F)cc2)n1CC[C@H](O)C[C@@H](O)CC(=O)O
a: 1.0

q: Does this molecule meet the criterion growth, % of control < 10%? CN(C(Cc1ccc(OS(=O)(=O)c2cccc3cnccc23)cc1)C(=O)N1CCN(c2ccccc2)CC1)S(=O)(=O)c1cccc2cnccc12 (centres undefined)
a: 1.0

q: Does this molecule meet the criterion growth, % of control < 10%? COc1ccc(CCC(=O)Nc2nc3ccc(Cl)cc3s2)cc1OC
a: 0.0

q: Does this molecule meet the criterion growth, % of control < 10%? COC1CCC(C(=O)c2ccc3nc4c(cc3c2)CCCO4)CC1 (centres undefined)
a: 0.0

q: Does this molecule meet the criterion growth, % of control < 10%? NCc1c[nH]c(=S)n1[C@H]1CCc2c(F)cc(F)cc2C1
a: 1.0

q: Does this molecule meet the criterion growth, % of control < 10%? Cc1cc(CS(=O)(=O)c2ccccc2)cc(OCc2ccc(CN3CCC[C@H]3CO)cc2)c1
a: 0.0

q: Does this molecule meet the criterion growth, % of control < 10%? CCCCN(CCCC)CC(O)c1cc(Cl)cc2c1-c1ccc(Cl)cc1C2=Cc1ccc(Cl)cc1 (centres undefined)
a: 0.0

====

test: qHTS of pediatric cancer cell lines to identify multiple opportunities for drug repurposing: Primary screen for RD cells (AID 1347104); settings: RD rhabdomyosarcoma viability, CellTiter-Glo luminescence, 48 h; series mostly up to 46 µM; also: nearly all actives have a fitted effect of over 55% in size
Results filed as inconclusive are left out. Activity calls are given as the source filed them. Calls follow the shape of the dose curve; as a rule, active = well fitted cell-killing curve with a large enough effect; inconclusive = small, poorly fitted or top-dose-only effect; inactive = flat fitted curve, though single readings scatter.
A correct response names exactly one class from 1 = active, 0 = inactive

q: # outcome recorded in this test, key = O=C(Nc1cccc2c(=O)cc(-c3nn[nH]n3)oc12)c1ccc(OCCCCc2ccccc2)cc1
a: 1

q: # outcome recorded in this test, key = CC(C)(OCc1nn(Cc2ccccc2)c2ccccc12)C(=O)O
a: 0

q: # outcome recorded in this test, key = N#CC(c1ccnc(NCCc2cccnc2)n1)c1nc2ccccc2s1 (stereo unspecified)
a: 1

q: # outcome recorded in this test, key = COc1cc(CNC(=O)CCCCC=CC(C)C)ccc1O
a: 0

q: # outcome recorded in this test, key = Cc1nc(NC(=O)N2CCC[C@@H]2C(N)=O)sc1-c1csc(C(C)(C)C)n1
a: 1

q: # outcome recorded in this test, key = Cc1cn([C@@H]2C[C@@H](O)[C@H](CO)O2)c(=O)[nH]c1=O
a: 0

q: # outcome recorded in this test, key = CC1(C)C(N(O)C(=O)Nc2ccc(Cl)cc2)N(c2ccc(Cl)cc2)C(=O)N1CC(=O)NN=CC=Cc1ccc([N+](=O)[O-])o1 (stereo unspecified)
a: 1

q: # outcome recorded in this test, key = O=C(c1ccc(F)c(F)c1Nc1ccc(I)cc1F)N1CC(O)([C@H]2CCCCN2)C1
a: 1

q: # outcome recorded in this test, key = Cc1cccc2c1CC[C@H](CN1CCC(c3c(Cl)cccc3Cl)CC1)C[C@@H]2O
a: 1

q: # outcome recorded in this test, key = O=C(Nc1ncc(SCCN2CCCC2)s1)[C@]1(c2ccc(S(=O)(=O)C3CC3)cc2)C[C@@H]1C1CCCCC1
a: 1

q: # outcome recorded in this test, key = CC(=O)N1CCN(c2ccc(OCc3nn(C)c(C)c3-c3cccc4c(CCCOc5cc(C)c(Cl)c(C)c5)c(C(=O)O)n(Cc5cccnc5)c34)cc2)CC1
a: 1

q: # outcome recorded in this test, key = O=C1Nc2ccc(I)cc2C1=Cc1cc(Br)c(O)c(Br)c1
a: 0

q: # outcome recorded in this test, key = Cc1c(-c2cccc3c(CCCOc4cccc5ccccc45)c(C(=O)O)n(Cc4cccnc4)c23)c(COc2ccc(N3CCN([S+](=O)([O-])N(C)C)CC3)cc2)nn1C
a: 1

q: # outcome recorded in this test, key = Cc1cc2nc3c(=O)[nH]c(=O)nc-3n(CC(O)C(O)C(O)CO)c2cc1C (stereo unspecified)
a: 0

q: # outcome recorded in this test, key = COc1cc2c(cc1OC)[C@@H]1Cc3ccc(OC)c(OC)c3CN1CC2
a: 0

q: # outcome recorded in this test, key = Cc1ccc(NC(=O)c2cccc(N(C)C)c2)cc1NC(=O)c1ccc(O)cc1
a: 1

q: # outcome recorded in this test, key = Nc1[nH]nc2nnc(-c3c(-c4ccccc4)nn4ccccc34)cc12
a: 1

q: # outcome recorded in this test, key = O=c1[nH]c(=O)n([C@H]2C[C@@H](O)[C@@H](CO)O2)cc1I
a: 0

q: # outcome recorded in this test, key = COc1ccc(-c2oc3c(CC=C(C)C)c(O)cc(O)c3c(=O)c2O)cc1
a: 1

q: # outcome recorded in this test, key = N#Cc1c(N(CC(=O)O)CC(=O)O)sc(C(=O)O)c1CC(=O)O
a: 0

q: # outcome recorded in this test, key = COc1cc2nccc(Oc3ccc(NC(=O)Nc4cc(C)on4)c(Cl)c3)c2cc1OC
a: 1

q: # outcome recorded in this test, key = CCCCCOC(=O)Nc1nc(=O)n([C@@H]2O[C@H](C)[C@@H](O)C2O)cc1F (stereo partly specified)
a: 0

q: # outcome recorded in this test, key = CCOC(=O)[C@@H](N)CCC(=O)N[C@@H](CSCc1ccccc1)C(=O)N[C@@H](C(=O)OCC)c1ccccc1
a: 0

q: # outcome recorded in this test, key = COc1ccc(-c2ccc3ncc4c(c3c2)n(-c2ccc(N3CCNCC3)c(C(F)(F)F)c2)c(=O)n4C)cn1
a: 1

q: # outcome recorded in this test, key = O=C(O)C1=CC(O)C(O)[C@H](O)C1 (stereo partly specified)
a: 0

q: # outcome recorded in this test, key = CCNC(=O)[C@H]1O[C@@H](n2cnc3c(N)nc(NCCc4ccc(CCC(=O)O)cc4)nc32)[C@H](O)[C@H]1O
a: 0

q: # outcome recorded in this test, key = O=C(c1ccc(C(=O)N2CCC(N3CCCC3)CC2)c(Nc2ccccc2)c1)N1CCC(N2CCCC2)CC1
a: 0

q: # outcome recorded in this test, key = CC1=C(C(=O)Nc2cc3cn[nH]c3cc2F)C(c2ccc(C(F)(F)F)cc2)CC(=O)N1 (stereo unspecified)
a: 0

q: # outcome recorded in this test, key = CC[C@H]1OC(=O)[C@H](C)[C@@H](O[C@H]2C[C@@](C)(OC)[C@@H](O)[C@H](C)O2)[C@H](C)[C@@H](O[C@@H]2O[C@H](C)C[C@H](N(C)C)[C@H]2O)[C@](C)(O)C[C@H](C)C(=NOCOCCOC)[C@H](C)[C@@H](O)[C@]1(C)O
a: 0

q: # outcome recorded in this test, key = CC(C)(CO)[C@@H](O)C(=O)NCCC(=O)O
a: 0

q: # outcome recorded in this test, key = Nc1ccc(-c2ccc3ncc4ccc(=O)n(-c5cccc(C(F)(F)F)c5)c4c3c2)cn1
a: 1

q: # outcome recorded in this test, key = CN(C)CCOc1ccc(-c2nc(-c3ccc4c(c3)CCC4=NO)c(-c3ccncc3)[nH]2)cc1
a: 1

q: # outcome recorded in this test, key = CC(=O)OCC(=O)[C@@]1(O)CC[C@H]2[C@@H]3CCC4=CC(=O)C=C[C@]4(C)[C@@H]3[C@@H](O)C[C@@]21C
a: 0

q: # outcome recorded in this test, key = c1cc(OCCN2CCCCC2)cc(-c2n[nH]c3ccc(-c4ncn[nH]4)cc23)c1
a: 0

q: # outcome recorded in this test, key = N#Cc1ccc(Oc2ccc3c(c2)COB3O)cc1
a: 0

q: # outcome recorded in this test, key = CCOC(=O)[C@H](CCc1ccccc1)N[C@@H](C)C(=O)N1CCCC1C(=O)O (stereo partly specified)
a: 0
